MEASURED TARGET: UniProt:O42275
Sequence (O42275 whole entry): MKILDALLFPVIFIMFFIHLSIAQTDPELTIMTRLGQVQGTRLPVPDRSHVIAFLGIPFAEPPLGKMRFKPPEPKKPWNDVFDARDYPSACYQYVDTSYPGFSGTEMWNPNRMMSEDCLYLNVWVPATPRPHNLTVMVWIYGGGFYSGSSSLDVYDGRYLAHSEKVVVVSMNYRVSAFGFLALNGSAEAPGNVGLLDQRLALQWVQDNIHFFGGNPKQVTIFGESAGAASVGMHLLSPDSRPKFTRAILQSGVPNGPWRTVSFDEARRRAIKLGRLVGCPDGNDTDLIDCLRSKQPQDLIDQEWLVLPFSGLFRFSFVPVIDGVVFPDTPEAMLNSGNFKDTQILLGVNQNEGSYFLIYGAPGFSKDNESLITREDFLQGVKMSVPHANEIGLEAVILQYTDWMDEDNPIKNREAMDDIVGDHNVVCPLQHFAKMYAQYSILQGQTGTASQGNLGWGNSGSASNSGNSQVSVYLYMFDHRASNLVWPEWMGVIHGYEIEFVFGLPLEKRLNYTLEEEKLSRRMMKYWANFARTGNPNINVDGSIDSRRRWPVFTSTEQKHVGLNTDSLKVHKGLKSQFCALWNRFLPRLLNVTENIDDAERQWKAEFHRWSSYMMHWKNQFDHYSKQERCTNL
MEASURED QUANTITY: IC50 (µM)
API: value field is a number in µM; no unit string.

Note to self: IC50 recorded for O=C1c2ccccc2C(=O)N1CCCNC1CCN(Cc2cccc(Cl)c2)CC1 was 68.3

Note to self: IC50 recorded for c1ccc(CN2CCC(NCCCCCn3ccc4ccccc43)CC2)cc1 was 0.02

Note to self: IC50 recorded for O=C1c2ccccc2C(=O)N1CCCNC1CCN(Cc2ccccc2F)CC1 was 23.1

Note to self: IC50 recorded for COc1ccc(CN2CCC(NCCCCCCCCN3C(=O)c4ccccc4C3=O)CC2)cc1 was 43.3

Note to self: IC50 recorded for O=C1c2ccccc2C(=O)N1CCCNC1CCN(Cc2ccc(O)cc2)CC1 was 4.52

Note to self: IC50 recorded for O=C1c2ccccc2C(=O)N1CCCNC1CCN(Cc2ccccc2)CC1 was 8.11

Note to self: IC50 recorded for c1ccc(CN2CCC(NCCCCCCn3ccc4ccccc43)CC2)cc1 was 0.01

Note to self: IC50 recorded for O=C1c2ccccc2C(=O)N1CCCCCCNC1CCN(Cc2ccc(O)cc2)CC1 was 29.8

Note to self: IC50 recorded for O=C1c2ccccc2C(=O)N1CCCCCCCCNC1CCN(Cc2ccc(O)cc2)CC1 was 23.5

###

MEASURED QUANTITY: pIC50
Reminder that pIC50 means the negative base-10 logarithm of the concentration expressed in mol/L.

Reading of pIC50 for c1ccc(CN2CCC(NCCCCCCCCn3ccc4ccccc43)CC2)cc1 with Cholinesterase (Equus caballus, UniProt P81908): 5.97

Reading of pIC50 for Fc1ccccc1CN1CCC(NCCCCCCCCn2ccc3ccccc32)CC1 with Cholinesterase (Equus caballus, UniProt P81908): 6.03

Reading of pIC50 for Clc1cccc(CN2CCC(NCCCCCCCCn3ccc4ccccc43)CC2)c1 with Cholinesterase (Equus caballus, UniProt P81908): 6.12

Reading of pIC50 for O=C1c2ccccc2C(=O)N1CCCCCCCCNC1CCN(Cc2ccc(O)cc2)CC1 with Cholinesterase (Equus caballus, UniProt P81908): 6.09

Reading of pIC50 for Oc1ccc(CN2CCC(NCCCCCCCCn3ccc4ccccc43)CC2)cc1 with Cholinesterase (Equus caballus, UniProt P81908): 5.88

Reading of pIC50 for Clc1cccc(CN2CCC(NCCCCCCn3ccc4ccccc43)CC2)c1 with Cholinesterase (Equus caballus, UniProt P81908): 6.08

Reference source: ChEMBL document CHEMBL3399932
